The reported numbers originate from patent US10117871B2.

Molecular target: HIV-1 integrase (Human immunodeficiency virus type 1 group M subtype B, UniProt P04585)
Construct: HIV integrase was expressed and purified as previously reported; made in house; host or cells: Escherichia coli
Assay: HIV-1 integrase strand transfer (INST) assay
Assay type: biochemical
Conditions: read-out: INST IC50
measurementType: pIC50
FYI, pIC50 means -log10 of a concentration in mol per litre.

Use the examples below as a reference point.
CCNc1[nH]c(=O)n(O)c(=O)c1C(=O)NCc1ccc(C)c(F)c1 7.29
CNc1[nH]c(=O)n(O)c(=O)c1C(=O)NCc1cccc(Cl)c1F 6.96

# context switch: different compound, same pIC50
Q. For CNc1[nH]c(=O)n(O)c(=O)c1C(=O)NCc1ccc(F)cc1 , what is its reported pIC50?
A. 6.96

* * *

Tested on: CEM-SS cells
Test: Compound cytotoxicity (MTS) in the HIV cytoprotection assay
Type: cell-based
Conditions: 10 μM; CEM-SS cells
Attribute: Cell viability %
Please reply with the bare figure in % and do not write the unit itself.

molecule	assayedSystem	Cell viability %, %
CC(C)(C)Nc1[nH]c(=O)n(O)c(=O)c1C(=O)NCc1ccccc1 [Compound 7-x]	CEM-SS cells	91
CCNc1[nH]c(=O)n(O)c(=O)c1C(=O)NCc1cc(F)ccc1F [Compound 7-xvii]	CEM-SS cells	92
CC(C)Nc1[nH]c(=O)n(O)c(=O)c1C(=O)NCc1ccccc1 [Compound 7-viii]	CEM-SS cells	17

Q. For CCNc1[nH]c(=O)n(O)c(=O)c1C(=O)Nc1ccccc1 [Compound 7-xxv] , what is its reported Cell viability %?
A. 27

* * *

Experiment: Compound cytotoxicity (MTS) in the HIV cytoprotection assay
Format: cell-based
Details: human
Method: The antiviral activity of newly synthesized analogues of chemotype 7 was evaluated against HIV-1IIIB in CEM-SS cells using an assay based on viral cytopathic effect (CPE). In this assay, the reduction of CPE was used to indicate the antiviral activity of a compound. Briefly virus and cells were mixed in the presence of test compound and incubated for 6 days. […]
measurementType: CC50 at 6 days (µM)
Please reply with the bare figure in µM and do not write the unit itself.

Q. For CCNc1[nH]c(=O)n(O)c(=O)c1C(=O)NCc1cc(F)ccc1F , what is its reported CC50 at 6 days?
A. 47

* * *

Tested on: HIV-1IIIB
Test: HIV-1 cytoprotection (CPE reduction) antiviral assay
Type: cell-based
Conditions: Concentration inhibiting virus replication by 50%; dose response; read-out: EC50
measurementType: pEC50
FYI, pEC50 means -log10 of a concentration in mol per litre.

Q. For Cc1cn([C@H]2C[C@H](N=[N+]=[N-])[C@@H](CO)O2)c(=O)[nH]c1=O [AZT, reference compound] , what is its reported pEC50?
A. 7.10

* * *

Molecular target: HIV-1 integrase (Human immunodeficiency virus type 1 group M subtype B, UniProt P04585)
Construct: HIV integrase was expressed and purified as previously reported; made in house; host or cells: Escherichia coli
Test: HIV-1 integrase strand transfer (INST) assay
Assay type: biochemical
Conditions: read-out: INST IC50
So basically, if IC50 comes in under 200 nM it's T, and if it's 200 nM or more it's F.

Reference set (4 entries):
molecule	labelValue
CC(C)Nc1[nH]c(=O)n(O)c(=O)c1C(=O)NCc1ccccc1 [Compound 7-viii]	T
CCNc1[nH]c(=O)n(OCc2ccccc2)c(=O)c1C(=O)N(C)Cc1ccc(F)cc1 [Compound 15]	F
CCNc1[nH]c(=O)n(O)c(=O)c1C(=O)NCc1cccc(F)c1 [Compound 7-xv]	T
O=C(NCc1ccccc1)c1c(NC2CC2)[nH]c(=O)n(O)c1=O [Compound 7-ix]	F

Q. Please let me know if CCNc1[nH]c(=O)n(O)c(=O)c1C(=O)NCc1ccc(Cl)c(F)c1 [Compound 7-xxii] shows IC50 below 200 nM.
A. T

* * *

Attribute: Cell viability %
Tested on: CEM-SS cells
Experiment: Compound cytotoxicity (MTS) in the HIV cytoprotection assay
Assay type: cell-based
Conditions: 10 μM; CEM-SS cells
Please reply with the bare figure in % and do not write the unit itself.

Use the examples below as a reference point.
CCNc1[nH]c(=O)n(O)c(=O)c1C(=O)NCc1ccccc1 100
CCNc1[nH]c(=O)n(O)c(=O)c1C(=O)NCc1ccc(F)cc1 99
CNc1[nH]c(=O)n(O)c(=O)c1C(=O)NCc1cccc(F)c1 95
CCNc1[nH]c(=O)n(O)c(=O)c1C(=O)NCc1cccc(Cl)c1F 100

# context switch: different compound, same Cell viability %
Q. For CCNc1[nH]c(=O)n(O)c(=O)c1C(=O)NCc1ccc(F)cc1F , what is its reported Cell viability %?
A. 87
